- MEASUREMENT_TARGET: UniProt:P00735
- ASSAY_NOTES: Concentration at which the clotting time was prolonged by twice the control was determined using topical bovine thrombin
- Type: functional
- CONDITION_LABEL: read-out: I50
pIC50: −log10 of the molar value.
REPORTED_PROPERTY: pIC50

Some solved entries appear below for comparison.
>>> print(df.to_string())
                                   compound  measurement_target  meas_value
0  CC(C)COC(=O)C(CCCN=C(N)N)NS(=O)(=O)c1cccc2c(N(C)C)cccc12 (stereo not given)      UniProt:P00735        5.00
1  CN(C)c1cccc2c(S(=O)(=O)NC(CCCNC(=N)N)C(=O)OCc3ccccc3)cccc12 (stereo not given)      UniProt:P00735        5.70

P: COC(=O)C(CCCN=C(N)N)NS(=O)(=O)c1ccc2ccccc2c1 (stereo not given)
Q: COCCOC(=O)C(CCCNC(=N)N)NS(=O)(=O)c1cccc2c(N(C)C)cccc12 (stereo not given)
Prompt: // pick larger pIC50 from pair: P vs Q State your choice using its label.
Completion: Q
(Q: 5.30, P: 3.89)

a: COC(=O)C(CCCN=C(N)N)NS(=O)(=O)c1cccc2cc(N(C)C)ccc12 (stereo not given)
b: CCOC(=O)C(CCCNC(=N)N)NS(=O)(=O)c1cccc2c(N(C)C)cccc12 (stereo not given)
c: COC(=O)C(CCCNC(=N)N)NS(=O)(=O)c1ccc(Cl)cc1 (stereo not given)
d: COC(=O)C(CCCN=C(N)N)NS(=O)(=O)c1ccc(N)cc1 (stereo not given)
Prompt: Let's sort these by pIC50, smallest first. Go ahead? List labels; respect the requested ordering.
Completion: d, c, a, b

a: COC(=O)C(CCCN=C(N)N)NS(=O)(=O)c1cccc([N+](=O)[O-])c1 (stereo not given)
b: COC(=O)C(CCCN=C(N)N)NS(=O)(=O)c1cccc2c(N(C)C)cccc12 (stereo not given)
Prompt: Could you tell me which of a and b has the lower pIC50 reading? State your choice using its label.
Completion: a
(a: 2.54, b: 4.70)

====

- MEASUREMENT_TARGET: UniProtKB P00735
- ASSAY_NOTES: Concentration at which the clotting time was prolonged by twice the control was determined using topical bovine thrombin
- Format: functional
- CONDITION_LABEL: read-out: I50
REPORTED_PROPERTY: IC50 (µM)

Some solved entries appear below for comparison.
In [3]: df
Out[3]:
                                   compound  units_text  meas_value
0  CN(C)c1cccc2c(S(=O)(=O)NC(CCCNC(=N)N)C(=O)OCC3CCCO3)cccc12 (stereo not given)          µM          20
1  CCCCCOC(=O)C(CCCN=C(N)N)NS(=O)(=O)c1cccc2c(N(C)C)cccc12 (stereo not given)          µM          49
2  COC(=O)C(CCCN=C(N)N)NS(=O)(=O)c1ccc(F)cc1 (stereo not given)          µM        5200
3  COC(=O)C(CCCNC(=N)N)NS(=O)(=O)c1cccc2ccccc12 (stereo not given)          µM         520

1: CC(C)OC(=O)C(CCCNC(=N)N)NS(=O)(=O)c1cccc2c(N(C)C)cccc12 (stereo not given)
2: C#CCCOC(=O)C(CCCN=C(N)N)NS(=O)(=O)c1cccc2c(N(C)C)cccc12 (stereo not given)
3: CCCOC(=O)C(CCCN=C(N)N)NS(=O)(=O)c1cccc2c(N(C)C)cccc12 (stereo not given)
4: COC(=O)C(CCCN=C(N)N)NS(=O)(=O)c1ccc([N+](=O)[O-])cc1 (stereo not given)
5: CCC(COC(=O)C(CCCN=C(N)N)NS(=O)(=O)c1cccc2c(N(C)C)cccc12)[N+](=O)[O-] (stereo not given)
Prompt: Thanks in advance: please rank these 5 entries by IC50, highest to lowest. List labels; respect the requested ordering.
Completion: 4, 5, 1, 2, 3

The origin of these recorded values is ChEMBL document CHEMBL1121483.
